Biological target: T1, human recombinant GIP receptor (human, UniProt P48546 22-466)
T1 construct: whole, on cells; Assayed as washed membranes of CHO-K1 cells expressing the receptor; also called hGIP receptor
T1 sequence (looked up): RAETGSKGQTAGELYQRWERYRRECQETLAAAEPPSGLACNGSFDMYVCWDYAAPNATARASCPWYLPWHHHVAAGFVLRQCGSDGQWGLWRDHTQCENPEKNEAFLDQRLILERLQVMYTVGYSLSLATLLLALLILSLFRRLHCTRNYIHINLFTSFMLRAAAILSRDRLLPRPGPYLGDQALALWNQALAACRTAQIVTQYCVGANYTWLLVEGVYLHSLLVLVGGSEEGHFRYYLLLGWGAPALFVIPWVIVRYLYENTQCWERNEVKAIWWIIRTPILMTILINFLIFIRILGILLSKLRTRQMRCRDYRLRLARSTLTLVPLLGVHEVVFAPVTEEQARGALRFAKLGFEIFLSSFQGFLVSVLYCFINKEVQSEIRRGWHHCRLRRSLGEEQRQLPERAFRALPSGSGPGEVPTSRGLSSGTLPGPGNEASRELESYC
Test: displacement of [125I]GIP, membranes of CHO-K1 cells expressing human GIP receptor
reported.property: Ki (nM)

YAEGTFISDYXIAXDKIHQQDFVNWLLAQKGKKNDWKHNITQC (3Cl-Tyr at 1; D-Ala at 2; A5c at 11; Nle at 14; Cys(succinimide) at 43, X stands for a non-natural residue) [[3Cl-Tyr^1, D-Ala^2, A5c^11, Nle^14, Cys^43(succinimide)]hGIP(1-43)-OH] = 9.13

(P) XXEGTFISDYXIAMDKIHQQDFVNWLLAQKGKKNDWKHNIXQ (3Thi at 1; Aib at 2; A5c at 11 and 41) [(3Thi^1, Aib^2, A5c^11, 41)hGIP(1-42)-OH]
(Q) HXEGTFISDYXIAXDKIHQQDFVNWLLAQKGKKNDWKHNITQ (Aib at 2; A5c at 11; Nle at 14) [(His^1, Aib^2, A5c^11, Nle^14)hGIP(1-42)-OH]
Q: Min Ki? P | Q Select an item and report its label.
A: Q
(Q: 3.18 nM, P: 7.05 nM)
